# combination Emax per record follows
Test system: OACM5-1 (Esophageal Adenocarcinoma)
PROCEDURE_SUMMARY: combination Emax (second highest fraction inhibited in the dose matrix, 72 h); higher = more inhibition; extreme values may be limits of the assay

Use these answered entries as a reference point.
COMPOUND	QUANTITY_MEASURED	VALUE_REPORTED
CN(CCO)CC[C@H](CSc1ccccc1)Nc1ccc(S(=O)(=O)NC(=O)c2ccc(N3CCC([C@@H](O)c4ccccc4-c4ccc(Cl)cc4)CC3)cc2)cc1S(=O)(=O)C(F)(F)F [AZD4320] + C=CCn1c(=O)c2cnc(Nc3ccc(N4CCN(C)CC4)cc3)nc2n1-c1cccc(C(C)(C)O)n1 [AZD1775] (first compound max 1 µM, partner max 1 µM)	combination Emax	0.635
COc1nnc2ccc(N3CCC(c4ccc(OCCN5CCN(C)C(=O)[C@H]5C)cc4)CC3)nn12 [AZD5153] + CC1(C)CCC(CN2CCN(c3ccc(C(=O)NS(=O)(=O)c4ccc(NCC5CCOCC5)c([N+](=O)[O-])c4)c(Oc4cnc5[nH]ccc5c4)c3)CC2)=C(c2ccc(Cl)cc2)C1 [Venetoclax] (first compound max 1 µM, 7x7, partner max 1 µM)	combination Emax	0.607

Consider now this further compound.
Endpoint output: combination Emax of Cc1c2c(nn1C)CSCc1cc(n(C)n1)CSc1cc(c3ccccc3c1)OCCCc1c(C(=O)O)n(C)c3c-2c(Cl)ccc13 [AZD5991] + Cc1cc2ncnn2cc1Nc1ncc2c(n1)n(C1CCOCC1)c(=O)n2C [AZD7648] (first compound max 1 µM, 7x7, partner max 10 µM) . Value? 0.923

====

System: COLO-679 (Melanoma)
PROCEDURE_SUMMARY: Bliss excess, mean over the matrix (fraction); higher = more synergy
Please enter fulfilled where Bliss excess is greater than or equal to -0.04, and not fulfilled where it is lower.

MOLECULE	ASSIGNED_LABEL
Cc1c2c(nn1C)CSCc1cc(n(C)n1)CSc1cc(c3ccccc3c1)OCCCc1c(C(=O)O)n(C)c3c-2c(Cl)ccc13 [AZD5991] + CS(=O)(=O)CCNCc1ccc(-c2ccc3ncnc(Nc4ccc(OCc5cccc(F)c5)c(Cl)c4)c3c2)o1 [Lapatinib] (first compound max 1 µM, 7x7, partner max 10 µM)	not fulfilled
Cc1cc2ncnn2cc1Nc1ncc2c(n1)n(C1CCOCC1)c(=O)n2C [AZD7648] + C[C@@H]1COCCN1C2=NC(=NC(=C2)C3(CC3)[S@](=N)(=O)C)C4=C5C=CNC5=NC=C4 [AZD6738] (first compound max 10 µM, 7x7, partner max 10 µM)	not fulfilled
Cn1cnc2c(F)c(Nc3ccc(Br)cc3Cl)c(C(=O)NOCCO)cc21 [Selumetinib] + CCN(CCO)CCCOc1ccc2c(Nc3cc(CC(=O)Nc4cccc(F)c4)[nH]n3)ncnc2c1 [AZD2811] (first compound max 10 µM, 7x7, partner max 1 µM)	fulfilled
COc1nnc2ccc(N3CCC(c4ccc(OCCN5CCN(C)C(=O)[C@H]5C)cc4)CC3)nn12 [AZD5153] + CCN(CCO)CCCOc1ccc2c(Nc3cc(CC(=O)Nc4cccc(F)c4)[nH]n3)ncnc2c1 [AZD2811] (first compound max 1 µM, 7x7, partner max 1 µM)	fulfilled

Please check the record Cc1c2c(nn1C)CSCc1cc(n(C)n1)CSc1cc(c3ccccc3c1)OCCCc1c(C(=O)O)n(C)c3c-2c(Cl)ccc13 [AZD5991] + C[C@@H]1COCCN1C2=NC(=NC(=C2)C3(CC3)[S@](=N)(=O)C)C4=C5C=CNC5=NC=C4 [AZD6738] (first compound max 1 µM, 7x7, partner max 10 µM) and state if its Bliss excess is at or above -0.04. fulfilled

Please check the record CC1(C)CCC(CN2CCN(c3ccc(C(=O)NS(=O)(=O)c4ccc(NCC5CCOCC5)c([N+](=O)[O-])c4)c(Oc4cnc5[nH]ccc5c4)c3)CC2)=C(c2ccc(Cl)cc2)C1 [Venetoclax] + C1CN(CCC1(C(=O)N[C@@H](CCO)C2=CC=C(C=C2)Cl)N)C3=NC=NC4=C3C=CN4 [Capivasertib] (first compound max 1 µM, 7x7, partner max 3 µM) and state if its Bliss excess is at or above -0.04. fulfilled

Please check the record C[C@@H]1COCCN1c1cc(C2([S@](C)(=N)=O)CC2)nc(-c2ccnc3[nH]ccc23)n1 [AZD6738] + O=C(c1cc(Cc2n[nH]c(=O)c3ccccc23)ccc1F)N1CCN(C(=O)C2CC2)CC1 [Olaparib] (first compound max 10 µM, 7x7, partner max 10 µM) and state if its Bliss excess is at or above -0.04. fulfilled

====

Test system: OACM5-1 (Esophageal Adenocarcinoma)
PROCEDURE_SUMMARY: Bliss excess, mean over the matrix (fraction); higher = more synergy
QUANTITY_MEASURED: Bliss excess
Reply with the value as a number alone.

COMPOUND	SUBJECT_OF_TEST	VALUE_REPORTED
CC(=O)c1c(C)c2cnc(Nc3ccc(N4CCNCC4)cn3)nc2n(C2CCCC2)c1=O [Palbociclib] + Cn1cnc2c(F)c(Nc3ccc(Br)cc3Cl)c(C(=O)NOCCO)cc21 [Selumetinib] (first compound max 10 µM, 7x7, partner max 10 µM)	OACM5-1 (Esophageal Adenocarcinoma)	-0.0247

Endpoint output: Bliss excess of COc1nnc2ccc(N3CCC(c4ccc(OCCN5CCN(C)C(=O)[C@H]5C)cc4)CC3)nn12 [AZD5153] + C[C@@H]1COCCN1C2=NC(=NC(=C2)C3(CC3)[S@](=N)(=O)C)C4=C5C=CNC5=NC=C4 [AZD6738] (first compound max 1 µM, 7x7, partner max 10 µM) . Value? 0.0593

Endpoint output: Bliss excess of Cc1c2c(nn1C)CSCc1cc(n(C)n1)CSc1cc(c3ccccc3c1)OCCCc1c(C(=O)O)n(C)c3c-2c(Cl)ccc13 [AZD5991] + CN(C)CCCOc1ccc(-c2ccc3ncc4c(c3c2)n(C2CCOCC2)c(=O)n4C)cn1 [AZD0156] (first compound max 1 µM, 7x7, partner max 1 µM) . Value? -0.0029

Endpoint output: Bliss excess of CC1(C)CCC(CN2CCN(c3ccc(C(=O)NS(=O)(=O)c4ccc(NCC5CCOCC5)c([N+](=O)[O-])c4)c(Oc4cnc5[nH]ccc5c4)c3)CC2)=C(c2ccc(Cl)cc2)C1 [Venetoclax] + CCN(CCO)CCCOc1ccc2c(Nc3cc(CC(=O)Nc4cccc(F)c4)[nH]n3)ncnc2c1 [AZD2811] (first compound max 1 µM, 7x7, partner max 1 µM) . Value? -0.0406

====

# combination Emax per record follows
Test system: EFO-21 (Ovarian Carcinoma)
PROCEDURE_SUMMARY: combination Emax (second highest fraction inhibited in the dose matrix, 72 h); higher = more inhibition; extreme values may be limits of the assay
Reply with the value as a number alone.

Use these answered entries as a reference point.
MOLECULE	combination Emax
CC(=O)c1c(C)c2cnc(Nc3ccc(N4CCNCC4)cn3)nc2n(C2CCCC2)c1=O [Palbociclib] + Cc1c2c(nn1C)CSCc1cc(n(C)n1)CSc1cc(c3ccccc3c1)OCCCc1c(C(=O)O)n(C)c3c-2c(Cl)ccc13 [AZD5991] (first compound max 10 µM, 7x7, partner max 1 µM)	0.256
CC1(C)CCC(CN2CCN(c3ccc(C(=O)NS(=O)(=O)c4ccc(NCC5CCOCC5)c([N+](=O)[O-])c4)c(Oc4cnc5[nH]ccc5c4)c3)CC2)=C(c2ccc(Cl)cc2)C1 [Venetoclax] + CCN(CCO)CCCOc1ccc2c(Nc3cc(CC(=O)Nc4cccc(F)c4)[nH]n3)ncnc2c1 [AZD2811] (first compound max 1 µM, 7x7, partner max 1 µM)	0.375

Endpoint output: combination Emax of Cn1cnc2c(F)c(Nc3ccc(Br)cc3Cl)c(C(=O)NOCCO)cc21 [Selumetinib] + CC(C)n1c(=O)n(C)c2cnc3cc(F)c(-c4ccc(OCCCN5CCCCC5)nc4)cc3c21 [AZD1390] (first compound max 10 µM, 7x7, partner max 0.3 µM) . Value? 0.205

====

# Bliss excess per record follows
System: KMRC-1 (Kidney Carcinoma)
PROCEDURE_SUMMARY: Bliss excess, mean over the matrix (fraction); higher = more synergy

COMPOUND	Bliss excess
NC1(C(=O)N[C@@H](CCO)c2ccc(Cl)cc2)CCN(c2ncnc3[nH]ccc23)CC1 [Capivasertib] + CC(=O)c1c(C)c2cnc(Nc3ccc(N4CCNCC4)cn3)nc2n(C2CCCC2)c1=O [Palbociclib] (first compound max 10 µM, 7x7, partner max 10 µM)	-0.0272

Endpoint output: Bliss excess of Cc1nc(Nc2ncc(C(=O)Nc3c(C)cccc3Cl)s2)cc(N2CCN(CCO)CC2)n1 [Dasatinib] + CC(=O)Nc1cccc(-n2c(=O)n(C3CC3)c(=O)c3c(Nc4ccc(I)cc4F)n(C)c(=O)c(C)c32)c1 [Trametinib] (first compound max 2 µM, 7x7, partner max 1 µM) . Value? -0.0009

Endpoint output: Bliss excess of CN(CCO)CC[C@H](CSc1ccccc1)Nc1ccc(S(=O)(=O)NC(=O)c2ccc(N3CCC([C@@H](O)c4ccccc4-c4ccc(Cl)cc4)CC3)cc2)cc1S(=O)(=O)C(F)(F)F [AZD4320] + CN(C)CCCOc1ccc(-c2ccc3ncc4c(c3c2)n(C2CCOCC2)c(=O)n4C)cn1 [AZD0156] (first compound max 1 µM, 7x7, partner max 1 µM) . Value? -0.0245
